Target: T1, cynomolgus soluble urokinase plasminogen activator receptor (cynomolgus suPAR) (cynomolgus, UniProt Q9GK78 23-303, limits assumed)
T1 construct: also called cynomolgus uPAR; cynoPLAUR-His
T1 sequence (Q9GK78 23-303 limits assumed): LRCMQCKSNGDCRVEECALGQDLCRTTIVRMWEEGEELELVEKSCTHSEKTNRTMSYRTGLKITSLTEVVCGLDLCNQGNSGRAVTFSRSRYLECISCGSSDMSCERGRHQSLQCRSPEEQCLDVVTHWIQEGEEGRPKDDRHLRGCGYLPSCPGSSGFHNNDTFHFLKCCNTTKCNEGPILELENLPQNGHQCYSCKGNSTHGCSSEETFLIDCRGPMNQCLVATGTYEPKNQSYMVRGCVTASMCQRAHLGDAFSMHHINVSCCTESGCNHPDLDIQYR
Assay: BLI (Octet) off-rate screen of scFv
Reported log10 of koff values for the following binders.
Heads up: the numbers are on a log10 scale; they represent koff in s⁻¹.

In the examples that follow, each entry is paired with its recorded log10 of koff.
# binder, valueObserved
data = [
    ("suPAR_DB02_B10 (scFv, V domains shown, Screened as scFv) VH: QVQLVQSGAEVKKPGASVKVSCKASGYTFTNYYMHWVRQAPGQGLEWMGWIDPENGNTSYDQKFQGRVTMTRDTSTSTVYMELSSLRSEDTAVYYCARGYDVDWFVYWGQGTLVTVSS VL: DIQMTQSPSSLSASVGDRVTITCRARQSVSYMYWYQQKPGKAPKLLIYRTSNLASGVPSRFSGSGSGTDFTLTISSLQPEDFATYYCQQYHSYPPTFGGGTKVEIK", -3.36),
    ("suPAR_DB01_G09 (scFv, V domains shown, Screened as scFv) VH: QVQLVQSGAEVKKPGASVKVSCKASGHTLNSYYMHWVRQAPGQGLEWMGWIDPENGNTIYAQKFQGRVTMTRDTSTSTVYMELSSLRSEDTAVYYCARGYDVDWFVYWGQGTLVTVSS VL: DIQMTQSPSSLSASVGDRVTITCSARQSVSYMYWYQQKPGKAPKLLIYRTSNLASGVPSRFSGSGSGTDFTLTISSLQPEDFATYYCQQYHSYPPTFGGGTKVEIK", -3.46),
    ("suPAR_DB02_B05 (scFv, V domains shown, Screened as scFv) VH: QVQLVQSGAEVKKPGASVKVSCKASGYTFTSYYMHWVRQAPGQGLEWMGWIDHENGNTSYAQKFQGRVTMTRDTSTSTVYMELSSLRSEDTAVYYCARGYDVDWFVYWGQGTLVTVSS VL: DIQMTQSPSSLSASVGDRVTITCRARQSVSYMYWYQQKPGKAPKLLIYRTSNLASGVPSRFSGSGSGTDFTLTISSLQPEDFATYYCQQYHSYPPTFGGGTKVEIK", -3.70),
    ("suPAR_DB01_F12 (scFv, V domains shown, Screened as scFv) VH: QVQLVQSGAEVKKPGASVKVSCKASGFNIKDYYIHWVRQAPGQGLEWMGWIDPENGSTIYDQKFQGRVTMTRDTSTSTVYMELSSLRSEDTAVYYCARGYDVDWFVYWGQGTLVTVSS VL: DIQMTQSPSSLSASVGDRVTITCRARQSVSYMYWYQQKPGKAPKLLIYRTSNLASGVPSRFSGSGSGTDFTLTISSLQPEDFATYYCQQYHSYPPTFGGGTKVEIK", -3.72),
]

# get_value(readout='log10 of koff', item= suPAR_DB01_F05 (scFv, V domains shown, Screened as scFv) VH: QVQLVQSGAEVKKPGASVKVSCKASGYTFSNYYMHWVRQAPGQGLEWMGWIDHEGGSTIYDQKFQGRVTMTRDTSTSTVYMELSSLRSEDTAVYYCARGYDVDWFVYWGQGTLVTVSS VL: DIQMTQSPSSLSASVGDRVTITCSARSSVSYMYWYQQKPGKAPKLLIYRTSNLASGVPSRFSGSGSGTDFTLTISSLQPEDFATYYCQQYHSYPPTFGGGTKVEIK )
-6.31
